ASSAYED SYSTEM: Guanidinoacetate N-methyltransferase (Homo sapiens)
ASSAY METHOD TEXT: Confirmatory Screen for Target Class Profiling of Small Molecule Inhibitors of Methyltransferases (AID 1745852); also: % is scaled to controls: 0 for no effect and ±100 for the full control effect
CONDITIONS USED: MTase-Glo luminescence, SAH detection, recombinant enzyme; at 57.3 µM (top of the series) unless noted
ASSAY ENDPOINT: activity change, negative = inhibition (%)
All answers are understood in %, so give the number only.

CCCCCOc1cc2c(cc1-c1cc(/C=C/C(=O)O)ccc1O)C(C)(C)CCC2(C)C = -6.96
CCCN1CCc2cccc3c2[C@H]1Cc1ccc(O)c(O)c1-3 = 5.72
C[C@@H]1[C@@H]2Cc3ccc(O)cc3[C@@]1(C)CCN2CC1CC1 = 6.66

INPUT: Give activity change, negative = inhibition for the following molecule: CCCN(CCC)CCc1ccc(O)c(O)c1
OUTPUT: 6.88

INPUT: Give activity change, negative = inhibition for the following molecule: CCCN1CC[C@@H]2c3cc(O)ccc3CC[C@@H]21
OUTPUT: 0.453

INPUT: Give activity change, negative = inhibition for the following molecule: CCCN1CCC[C@@H](c2cccc(O)c2)C1
OUTPUT: 1.62

INPUT: Give activity change, negative = inhibition for the following molecule: NC(=O)CI
OUTPUT: 0.112

----------
ASSAYED SYSTEM: Guanidinoacetate N-methyltransferase (Homo sapiens)
ASSAY METHOD TEXT: Confirmatory Screen for Target Class Profiling of Small Molecule Inhibitors of Methyltransferases (AID 1745852); also: % is scaled to controls: 0 for no effect and ±100 for the full control effect
CONDITIONS USED: MTase-Glo luminescence, SAH detection, recombinant enzyme; at 57.3 µM (top of the series) unless noted
Below: a set of entries, each annotated with reported activity change, negative = inhibition.
All answers are understood in %, so give the number only.

Below, 4 molecules whose answers are already recorded.
Cc1sc2ccccc2c1CC1=NCCN1 = 4.23
CN1CCC[C@@H]1Cc1c[nH]c2ccc(Nc3ncccc3[N+](=O)[O-])cc12 = 2.94
CCn1cnc2c(Nc3cccc(Cl)c3)nc(N[C@@H]3CCCC[C@@H]3N)nc21 = 4.82
NCC(O)c1cc(O)c(O)cc1F (stereo unspecified) = 4.77

INPUT: Give activity change, negative = inhibition for the following molecule: CN1CCc2cc(O)cc3c2[C@H]1Cc1ccc(O)c(O)c1-3
OUTPUT: -1.59

----------
ASSAY METHOD TEXT: Cytometry Cell-Based qHTS for Inhibitors of the mTORC1 Signaling Pathway in MEF cells (AID 2668)
CONDITIONS USED: mTORC1 pathway readout; series mostly up to 38.3 µM
Inconclusive results are not listed. Active and inactive are the calls of the source. Calls follow the shape of the dose curve; as a rule, active = well fitted inhibition curve with a large enough effect; inconclusive = small, poorly fitted or top-dose-only effect; inactive = flat fitted curve, though single readings scatter.
Choose one outcome from this list and give only that: 1 (yes) = active, 0 (no) = inactive

Reference set, count: 6
C=CCN1C[C@@H](C)N([C@H](c2ccc(C(=O)N(CC)CC)cc2)c2cccc(OC)c2)C[C@@H]1C = 0 (no)
CCN(CCCl)Cc1ccccc1Br = 0 (no)
C=CCN1CCC23c4c5ccc(O)c4O[C@H]2C(=O)CC[C@@]3(O)C1C5 (some centres not stated) = 0 (no)
Ic1ccccc1CNC1C2CCN(CC2)C1C(c1ccccc1)c1ccccc1 (configuration not stated) = 1 (yes)
C=CCN(C1=NCCN1)c1c(Cl)cccc1Cl = 0 (no)
C[Se]C[C@H](N)C(=O)O = 0 (no)

Could you now consider this next molecule?
INPUT: Could you check what this test reported for CCNC(=O)[C@H]1O[C@@H](n2cnc3c(N)ncnc32)[C@H](O)[C@@H]1O ?
OUTPUT: 0 (no)

----------
Test system: C33A
ASSAY METHOD TEXT: Primary qHTS to identify gynecologic anti-cancer compounds using libraries of approved drugs and bioactive compounds (AID 1345084); also: nearly all actives have a fitted effect of over 55% in size
CONDITIONS USED: Gynecologic cancer cell panel viability, ATPlite luminescence, 48 h; series mostly up to 57.5 µM
Inconclusive results are not listed. Active and inactive are the calls of the source. Calls come from the whole dose curve; as a rule, active = well fitted cell-killing curve with a large enough effect; inconclusive = small, poorly fitted or top-dose-only effect, or effect the other way; inactive = flat fitted curve, though single readings scatter.
Choose one outcome from this list and give only that: label 1 = active, label 0 = inactive

C[C@]12CC[C@H]3[C@@H]([C@H](O)CC4=CC(=O)CC[C@@]43C)[C@@H]1CC[C@@H]2O = label 0
CC[C@H]1CN2CC[C@H]1C[C@@H]2[C@@H](O)c1ccnc2ccc(OC)cc12 = label 0
CN1[C@@H]2CC[C@H]1CC(OC(=O)C1C=Nc3ccccc31)C2 (stereo not given in full) = label 0
COc1cc(C(=O)O[C@H]2[C@@H]3C=CO[C@@H](O[C@@H]4O[C@H](CO)[C@@H](O)[C@H](O)[C@H]4O)[C@@H]3[C@@]3(CO)O[C@@H]23)ccc1O = label 0

INPUT: Could you check what this test reported for COC(=O)C1(C)CCC(O)C2(C)c3c(O)cc(C(C)C)cc3C(O)C(OC(C)=O)C12 (stereo not given) ?
OUTPUT: label 0

INPUT: Could you check what this test reported for N#C[C@@H](O[C@@H]1O[C@H](CO[C@@H]2O[C@H](CO)[C@@H](O)[C@H](O)[C@H]2O)[C@@H](O)[C@H](O)[C@H]1O)c1ccccc1 ?
OUTPUT: label 0

INPUT: Could you check what this test reported for COC1CC(OC2CCC3(C=O)C(CCC4C3CCC3(C)C(C5=CC(=O)OC5)CCC43O)C2)OC(C)C1OC1OC(CO)C(O)C(O)C1O (stereo not given) ?
OUTPUT: label 1

INPUT: Could you check what this test reported for COC1C(O)C(OC2CCC3(C=O)C(CCC4C3CCC3(C)C(C5=CC(=O)OC5)CCC43O)C2)OC(C)C1OC1OC(CO)C(O)C(O)C1O (stereo not given) ?
OUTPUT: label 1

INPUT: Could you check what this test reported for C[C@@]1(C(=O)O)CC[C@]2(C)CC[C@]3(C)C4=CC(=O)c5cc(O)c(O)cc5[C@]4(C)CC[C@@]3(C)[C@@H]2C1 ?
OUTPUT: label 0

INPUT: Could you check what this test reported for COc1cc(CCNCc2ccccc2O)c(OC)cc1C#N ?
OUTPUT: label 0

INPUT: Could you check what this test reported for CC[C@H]1CN2CC[C@H]1C[C@H]2[C@H](O)c1ccnc2ccc(OC)cc12 ?
OUTPUT: label 0

INPUT: Could you check what this test reported for CCOc1ccccc1-n1c(C(C)N2CCN(C(=O)COc3ccc(Cl)cc3)CC2)nc2ccccc2c1=O (stereo not given) ?
OUTPUT: label 0

INPUT: Could you check what this test reported for CCN1C[C@]2(COC)[C@H](O)C[C@H](OC)[C@]34[C@@H]5C[C@]6(O)[C@H](OC(=O)c7ccccc7)[C@@H]5[C@@](O)([C@H]([C@H](OC)[C@H]23)[C@@H]14)[C@@H](O)[C@@H]6OC ?
OUTPUT: label 0

INPUT: Could you check what this test reported for C[C@H](NC(=O)Cc1cc(F)cc(F)c1)C(=O)N[C@@H]1N=C(c2ccccc2)c2ccccc2N(C)C1=O ?
OUTPUT: label 0

INPUT: Could you check what this test reported for C/C=C(\C)C(=O)OC1CC2C(C)(C)OC(=O)CC(OC(C)=O)C2(C)C2CC(OC(=O)C(C)C)C3(C)C(c4ccoc4)CC4OC43C12C (stereo not given) ?
OUTPUT: label 0

----------
Test system: CP250
ASSAY METHOD TEXT: qHTS profiling for inhibitors of Plasmodium falciparum proliferation (AID 504749);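 also: 0% = DMSO vehicle and full inhibition = artemisinin control; nearly all actives have a fitted effect of over 60% in size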
CONDITIONS USED: P. falciparum in erythrocytes, SYBR Green DNA, 72 h; series mostly up to 28.7 µM
Method: NIH National Institute of Allergy and Infectious Diseases [NIAID] NIH Chemical Genomics Center [NCGC] […] Because mature erythrocytes lack DNA, only Plasmodium-derived DNA is detected. NCGC Assay Protocol Summary: The SYBR Green viability assay was adapted from a method described previously (Plouffe et al., 2008). […] The following morning, fluorescence intensity at 485(14) nm excitation and 535(25) nm emission wavelengths was measured on an EnVision (Perkin Elmer) plate reader. […]
Inconclusive results are not listed. Active and inactive are the calls of the source. Calls come from the whole dose curve; as a rule, active = well fitted inhibition curve with a large enough effect; inconclusive = small, poorly fitted or top-dose-only effect; inactive = flat fitted curve, though single readings scatter.
Choose one outcome from this list and give only that: active, inactive

Reference set, count: 8
[Cl-].[Cl-].[Hg+2] = inactive
Cn1sc(Cl)cc1=O = inactive
COc1ccc2c3c1O[C@H]1C(=O)CC[C@H]4[C@@H](C2)N(C)CC[C@]314 = inactive
Clc1ccc(Cl)cc1 = inactive
C[C@H]1CC[C@@H]2[C@@H](C)[C@H]3[C@H](C[C@H]4[C@@H]5CC=C6CC(O[C@@H]7O[C@H](CO)[C@H](O)[C@H](O[C@@H]8O[C@H](CO)[C@@H](O)[C@H](O)[C@H]8O)[C@H]7O[C@H]7O[C@@H](C)[C@H](O)[C@@H](O)[C@H]7O)CC[C@]6(C)[C@H]5CC[C@]34C)N2C1 (stereo partly specified) = inactive
CNC(=O)OCC[N+](C)(C)C = inactive
CCCCNCC(O)c1ccc(O)cc1 (stereo unspecified) = inactive
COC([CH2][Hg])CNC(=O)c1ccccc1OCC(=O)O (stereo unspecified) = inactive

INPUT: Could you check what this test reported for O=C1C2CC=CCC2C(=O)N1SC(Cl)(Cl)Cl (stereo unspecified) ?
OUTPUT: inactive

INPUT: Could you check what this test reported for CNC1(c2ccccc2Cl)CCCCC1=O (stereo unspecified) ?
OUTPUT: inactive

INPUT: Could you check what this test reported for CN1c2ccccc2C(NCCCCCCC(=O)O)c2ccc(Cl)cc2S1(=O)=O (stereo unspecified) ?
OUTPUT: inactive

INPUT: Could you check what this test reported for CC(=O)OC1CN2CCC1CC2 (stereo unspecified) ?
OUTPUT: inactive
